Hi, quick share: literature IC50 data for ULK1 (Homo sapiens), several sources combined.

[[record]]
smiles_text = "Cc1cc(N2CCNCC2)ccc1Nc1ncc(C(F)(F)F)c(NCCCN2CCCCC2=O)n1"
result = "1 to 25 nM"

[[record]]
smiles_text = "[2H]C([2H])([2H])N1CCC(n2cc(Nc3ncc(Br)c(NCCCNC(=O)C4CCC4)n3)c(C)n2)CC1"
result = "25 to 100 nM"

[[record]]
smiles_text = "Brc1cnc(Nc2ccc3[nH]ccc3c2)nc1Nc1ccccn1"
result = "< 200 nM"

[[record]]
smiles_text = "Cc1nn(C2CCNCC2)cc1Nc1ncc(C(F)(F)F)c(NCCCNC(=O)C2CCC2)n1"
result = "1 to 25 nM"

[[record]]
smiles_text = "NCCCNc1nc(Nc2ccc3c(c2)CCC(=O)N3)ncc1C(F)(F)F"
result = "< 200 nM"

[[record]]
smiles_text = "C[C@@H](CCNc1nc(Nc2cnn(C3CCN(C4CC4)CC3)c2)ncc1Cl)N1CCCC1=O"
result = "> 500 nM"

[[record]]
smiles_text = "CNC(=O)c1ccccc1Nc1nc(Nc2cc(OC)c(OC)c(OC)c2)ncc1/C=C/c1ccccc1"
result = "< 200 nM"


Could you now consider this next molecule?
Exam item: Param readout= IC50; system= ULK1 (Homo sapiens); entry= `CCC(CC)NC(=O)c1cc(-c2cnn3cc(-n4ccccc4=O)cnc23)cs1` ; returns value.
Marked response: 500 to 1000 nM

====

Collected from the literature: pIC50 of various molecules toward UniProt O75385.
pIC50: −log10 of the molar value.

Field: example entries. Status: answers known.
[[record]]
smiles_text = "Cc1nn([C@H]2CCNC2)cc1Nc1ncc(C(F)(F)F)c(NCCCN2CCCCC2=O)n1"
result = "7.60 to 9.00"

[[record]]
smiles_text = "CNC(=O)c1ccccc1Nc1nc(Nc2cc(OC)ccc2C)ncc1Cl"
result = "> 6.70"

[[record]]
smiles_text = "CNC(=O)c1ccccc1Nc1nc(Nc2cc(OC)c(OC)c(OC)c2)ncc1-c1ccccc1"
result = "> 6.70"

[[record]]
smiles_text = "COc1cc(Nc2ncc(Br)c(Oc3ccccc3C(=O)N(C)C)n2)cc(OC)c1OC"
result = "> 6.70"

[[record]]
smiles_text = "Cc1cc(N2CCN(C)CC2)ncc1Nc1ncc(C(F)(F)F)c(NCCCNC(=O)C2CCC2)n1"
result = "6.30 to 7.00"

[[record]]
smiles_text = "CN1CCC(n2cc(Nc3ncc(C4CC4)c(NCCCN4CCCC4=O)n3)cn2)CC1"
result = "6.30 to 7.00"

[[record]]
smiles_text = "CC1(C)CCN(CCCNc2nc(Nc3cnn(C4CCN(C5CC5)CC4)c3)ncc2Br)C1=O"
result = "6.30 to 7.00"

[[record]]
smiles_text = "CCN1CCC(n2cc(Nc3cc(NCCCN4CCCCC4=O)c(C(F)(F)F)cn3)cn2)CC1"
result = "7.00 to 7.60"


Please look at the following molecule next.
Exam item: Quick one: pIC50 for `Cc1nn(C2CN(CC(C)C)C2)cc1Nc1ncc(C(F)(F)F)c(NCCCN2CCCCC2=O)n1` ?
Marked response: 7.00 to 7.60

====

Kindly find below IC50 information for ULK1 (Homo sapiens, UniProt O75385) taken from the literature.

[[record]]
molecule = "COC(=O)Nc1ccccc1Oc1nc(Nc2cc(OC)c(OC)c(OC)c2)ncc1Br"
result = "< 200 nM"

[[record]]
molecule = "CCc1nn(C2CCN(C)CC2)cc1Nc1ncc(Br)c(NCCCN2CCCCC2=O)n1"
result = "25 to 100 nM"

[[record]]
molecule = "Cc1nn(C2CCNCC2)cc1Nc1ncc(Cl)c(NCCCN2CCCCC2=O)n1"
result = "25 to 100 nM"

[[record]]
molecule = "CNC(=O)c1ccccc1Nc1nc(Nc2ccc3c(c2)CCC(=O)N3)ncc1Cl"
result = "< 200 nM"

[[record]]
molecule = "COc1ccc(C)c(Nc2ncc(Cl)c(Nc3cccc(CC#N)c3)n2)c1"
result = "> 2000 nM"


Exam item: Give recorded IC50 with ULK1 (Homo sapiens, UniProt O75385) for the following molecule: `O=C1CCc2cc(Nc3ncc(C(F)(F)F)c(Nc4ccc5c(c4)OCO5)n3)ccc2N1`
Sequence (O75385 whole entry, species assumed): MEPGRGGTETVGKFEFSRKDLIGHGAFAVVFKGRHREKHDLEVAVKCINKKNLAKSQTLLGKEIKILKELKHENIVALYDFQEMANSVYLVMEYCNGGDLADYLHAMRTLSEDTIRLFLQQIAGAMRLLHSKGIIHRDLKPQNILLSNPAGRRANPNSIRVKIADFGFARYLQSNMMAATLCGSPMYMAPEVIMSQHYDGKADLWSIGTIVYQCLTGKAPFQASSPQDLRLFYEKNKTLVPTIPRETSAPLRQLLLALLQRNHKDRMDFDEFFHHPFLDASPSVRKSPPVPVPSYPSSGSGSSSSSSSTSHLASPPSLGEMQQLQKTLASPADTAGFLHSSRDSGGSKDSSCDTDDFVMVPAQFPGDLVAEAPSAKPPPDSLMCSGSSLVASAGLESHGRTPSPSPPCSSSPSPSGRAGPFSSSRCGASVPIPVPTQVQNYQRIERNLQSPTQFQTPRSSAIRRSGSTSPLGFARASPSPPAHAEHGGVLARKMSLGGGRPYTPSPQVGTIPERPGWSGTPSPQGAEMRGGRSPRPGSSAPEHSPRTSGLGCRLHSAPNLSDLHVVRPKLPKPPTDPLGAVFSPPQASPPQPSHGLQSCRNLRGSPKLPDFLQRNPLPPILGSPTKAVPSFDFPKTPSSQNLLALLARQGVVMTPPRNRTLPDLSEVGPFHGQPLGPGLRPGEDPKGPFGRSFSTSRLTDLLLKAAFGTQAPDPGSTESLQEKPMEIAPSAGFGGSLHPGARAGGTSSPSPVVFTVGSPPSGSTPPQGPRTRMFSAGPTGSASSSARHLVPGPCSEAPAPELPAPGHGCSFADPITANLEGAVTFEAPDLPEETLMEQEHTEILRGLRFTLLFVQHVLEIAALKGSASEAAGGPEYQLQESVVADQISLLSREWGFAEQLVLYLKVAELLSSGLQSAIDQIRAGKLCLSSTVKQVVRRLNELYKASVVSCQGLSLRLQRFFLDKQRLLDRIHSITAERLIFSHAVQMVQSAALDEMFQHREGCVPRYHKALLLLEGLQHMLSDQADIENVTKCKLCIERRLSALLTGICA
Marked response: < 200 nM

Exam item: Requested read-out IC50, target or system ULK1 (Homo sapiens, UniProt O75385), entry `O=C1CCc2cc(Nc3ncc(C(F)(F)F)c(NCC4CC4)n3)ccc2N1`
Marked response: < 200 nM

Exam item: Query IC50 on ULK1 (Homo sapiens, UniProt O75385) for `Cc1nn(CCCN2CCCC2)cc1Nc1ncc(C(F)(F)F)c(NCCCN2CCCCCC2=O)n1`
Marked response: 1 to 25 nM

Exam item: What IC50 appears in the records for this molecule with ULK1 (Homo sapiens, UniProt O75385)? `O=c1[nH]c2ccc(Nc3ncc(Br)c(Nc4ccc5[nH]c(=O)[nH]c5c4)n3)cc2[nH]1`
Marked response: < 200 nM

Exam item: Identify the measured IC50 of `CCN1CCC(n2cc(Nc3ncc(C(F)(F)F)c(NCCCN4CCCC4=O)n3)c(C)n2)CC1` for ULK1 (Homo sapiens, UniProt O75385).
Marked response: 100 to 500 nM

Exam item: Request - read-out IC50 | tested on ULK1 (Homo sapiens, UniProt O75385) | molecule `Cc1cc(-c2cn(C)cn2)ccc1Nc1ncc(C(F)(F)F)c(NCCCN2CCOCCC2=O)n1`
Marked response: > 500 nM

Exam item: Provide the documented IC50 with ULK1 (Homo sapiens, UniProt O75385) as the system for `FC(F)(F)c1cnc(Nc2ccc3nc[nH]c3c2)nc1Nc1cc(C2CCC2)[nH]n1`
Marked response: < 200 nM

Exam item: Form field: IC50 recorded for `FC(F)(F)c1cnc(Nc2ccc3c(c2)CCNC3)nc1NC1CC1` with ULK1 (Homo sapiens, UniProt O75385) (enter value)
Marked response: < 200 nM

Exam item: Find the measured IC50: item `CNC(=O)c1ccccc1Nc1nc(Nc2cccc(OC)c2)ncc1Cl` , target or system ULK1 (Homo sapiens, UniProt O75385).
Marked response: < 200 nM

Exam item: Reported IC50 for ULK1 (Homo sapiens, UniProt O75385), given CCC(C)N1CCC(n2cc(Nc3ncc(C(F)(F)F)c(NCCCN4CCCCCC4=O)n3)c(C)n2)CC1 (stereo not drawn) ?
Marked response: 1 to 25 nM

Exam item: What value of IC50 on ULK1 (Homo sapiens, UniProt O75385) does `CC1(C)CCC(=O)N1CCCNc1nc(Nc2cnn(C3CCN(C4CC4)CC3)c2)ncc1Cl` have?
Marked response: 100 to 500 nM

Exam item: Form entry - test system: ULK1 (Homo sapiens, UniProt O75385); read-out: IC50; molecule: `Cc1nn([C@@H]2CCN(C)C2)cc1Nc1ncc(C(F)(F)F)c(NCCCN2CCCOCC2=O)n1`
Marked response: 25 to 100 nM

Exam item: Identify the measured IC50 of `CNC(=O)c1ccccc1Nc1nc(Nc2cc(OC)ccc2C)ncc1C(F)(F)F` for ULK1 (Homo sapiens, UniProt O75385).
Marked response: < 200 nM
